Taken from PubChem BioAssay AID588850.

Assay: NF-kB reporter blockers in CF airway cells – cell-based, GFP fluorescence, uHTS, primary screen (AID 588850);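 note: PAF is a Pseudomonas aeruginosa culture filtrate used as stimulus; plate controls were PAF-stimulated DMSO wells for no effect and unstimulated DMSO wells for full effect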
Conditions: KKLEB NF-kB-GFP reporter, PAF-induced, GFP fluorescence overnight; at 5 µM; active compounds read high
Screen size: about 360,000 compounds; about 3,100 (0.86%) were called active. For the sample, actives were picked, then their nearest neighbours and some compounds at random.
quantityKind: inhibition (%)
Answers are plain numbers, in %.

COc1ccc(-c2ccc(CN3C(CC(C)C)C(=O)N(Cc4cn(CC5CCCCC5)nn4)CCS3(=O)=O)cc2)cc1 (stereo unspecified); 41.4

Required: inhibition, one value per compound below.
1. COc1ccc(-c2ccc(CN3C(C(C)C)C(=O)N(Cc4cn(CC5CCCCC5)nn4)CCS3(=O)=O)cc2)cn1 (stereo unspecified)
2. O=C1C=CC(=O)N1c1ccc(N2CCCCC2)cc1
3. COCOCCn1cc(CN2CCS(=O)(=O)N(Cc3ccc(-c4ccccc4)cc3)C(CC(C)C)C2=O)nn1 (stereo unspecified)
4. Cc1nn(C(C)C(=O)N2CCOCC2)c(=O)c2nn(-c3ccccc3)c(C)c12 (stereo unspecified)
5. CCOP(=O)(OCC)C(Cc1ccccc1)N=C(c1ccccc1)c1ccccc1 (stereo unspecified)

OUTPUT:
1. -2.4
2. 67
3. 23.5
4. 1.5
5. 2.4

====

Assay: NF-kB reporter blockers in CF airway cells – cell-based, GFP fluorescence, uHTS, primary screen (AID 588850)
Conditions: KKLEB NF-kB-GFP reporter, PAF-induced, GFP fluorescence overnight; at 5 µM; active compounds read high
Screen size: about 360,000 compounds; about 3,100 (0.86%) were called active. Shown is part of a subset that was picked to be rich in actives.
quantityKind: inhibition (%)
Give bare numbers, in %.

Use the examples below as a reference point.
COc1ccc(NC(=O)c2cc(-c3cc(OC)c(OC)c(OC)c3)nc3ccccc23)c(OC)c1; 60.9
COc1ccc(-c2cc3nc(NCCOc4ccccc4)ccn3n2)cc1; 20.8
Cc1nnc(NC(=O)CCC(=O)N2CCC(C)CC2)s1; 8.8
CC1(C(=O)NS(=O)(=O)c2ccccc2)CCN1C(=O)c1ccccc1 (stereo not given); -17.7
NS(=O)(=O)c1cc2c(cc1Cl)NC(C(Cl)Cl)NS2(=O)=O (stereo not given); 22

Required: inhibition, one value per molecule below.
1. O=c1[nH]c(/C=C/c2cccc(Br)c2)nc2ccccc12
2. CNCC(O)c1ccc(O)c(O)c1 (stereo not given)
3. CCNc1nc(N)nc(Oc2ccc(OCC)nn2)n1

OUTPUT:
1. 20.4
2. 12.4
3. -19.3

Required: inhibition, one value per molecule below.
1. COc1ccc(-c2cc(C(=O)n3cnc4ccccc43)c3ccccc3n2)cc1
2. CC(Sc1nncn1C)C(=O)Nc1ccccc1-c1ccccc1 (stereo not given)
3. CC[C@H]1CN2CCc3cc(OC)c(OC)cc3[C@@H]2C[C@@H]1C[C@H]1NCCc2cc(OC)c(OC)cc21
4. COCc1c(C(=O)OCc2c(C)noc2C)oc2ccccc12
5. Nc1[nH][nH]c(=O)c1N=Nc1ccc2c(c1)OCO2
6. COc1cccc(Cn2cc(/C=N/NC(=O)c3cc(O)cc(O)c3)c3ccccc32)c1

OUTPUT:
[5.5, -12.2, 82.5, -11.5, -6.6, 1.7]

Required: inhibition, one value per molecule below.
1. CCOC(=O)C1=CC[C@@H](c2ccccc2)N(S(=O)(=O)c2ccc(C)cc2)[C@H]1c1ccc(CC)cc1
2. Cn1c(C(=O)O)ccc1S(=O)(=O)N(Cc1ccccc1)Cc1ccccc1
3. COc1cccc(C(O)c2nc(-c3ccc(C)c(C)c3)cs2)c1 (stereo not given)

OUTPUT:
11.8
-3.7
17.1

====

Can you tell me inhibition for the items I'm about to list?
Experiment: NF-kB reporter blockers in CF airway cells – cell-based, GFP fluorescence, uHTS, primary screen (AID 588850);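 note: PAF is a Pseudomonas aeruginosa culture filtrate used as stimulus; plate controls were PAF-stimulated DMSO wells for no effect and unstimulated DMSO wells for full effect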
Details: KKLEB NF-kB-GFP reporter, PAF-induced, GFP fluorescence overnight; at 5 µM; active compounds read high
In all, about 360,000 compounds went through this assay and about 3,100 (0.86%) were called active. What follows is part of a selection rich in actives, with near analogues and random picks from the rest.
Answers are plain numbers, in %.

Use the examples below as a reference point.
CC(=O)NS(=O)(=O)c1ccccc1; 10.6
Cc1cc(C)n(CC(C)NCc2c(C(=O)N3CCOCC3)nc3c(C)cccn23)n1 (stereo unspecified); -0.6
Cc1cc(C)c(S(=O)(=O)c2cc(F)ccc2C)c(=O)[nH]1; -12.1
CN(C)/C=C/c1c(C#N)c(=O)ncn1Cc1ccccc1; -10.4
COc1cc(OC)cc(C(=O)Nc2ccc(-c3nc4ccccc4o3)c(O)c2)c1; -44.7
Cc1ccccc1N1C(=O)C(Oc2ccc(Cl)cc2)C1CNCC1CCCO1 (stereo unspecified); -17.5
CN(CC(=O)NCC(c1ccccc1)N1CCCC1)S(=O)(=O)c1ccc(Cl)cc1 (stereo unspecified); -5.7
O=c1c2c(ncn1Cc1ccccc1)nc1n2CCC1; 1.3
CC(C)(C)NC(=O)Cn1c(SCC(=O)Nc2nccs2)nc2ccccc21; -6.3
COc1ccc(S(=O)(=O)/N=C2\C=C(NS(=O)(=O)c3ccccc3)C(=O)c3ccccc32)cc1; 45

Now, please, on to the next compound.
INPUT: Sample CCOc1ccc(C(C)=O)cc1CSc1nnc(-c2ccncc2)n1CCOC — what was its inhibition?
OUTPUT: -0.6

====

Assay: NF-kB reporter blockers in CF airway cells – cell-based, GFP fluorescence, uHTS, primary screen (AID 588850);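 note: PAF is a Pseudomonas aeruginosa culture filtrate used as stimulus; plate controls were PAF-stimulated DMSO wells for no effect and unstimulated DMSO wells for full effect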
Conditions: KKLEB NF-kB-GFP reporter, PAF-induced, GFP fluorescence overnight; at 5 µM; active compounds read high
About 3,100 (0.86%) of roughly 360,000 compounds were called active. This is one part of a sample in which actives are shown more often than they occur.
quantityKind: inhibition (%)
Answers are plain numbers, in %.

Cn1cc(C2OC(=O)c3ccccc32)c2ccccc21 (stereo unspecified); 41.4
O=C(c1cc(COc2c(F)cccc2F)on1)N1CCSCC1; 19
NS(=O)(=O)c1ccc(N=Cc2ccc(Br)s2)cc1; 2.4
CCc1cc(-c2nnn(CCC3COCCO3)c2CC)ccc1-c1cn(Cc2ccc3ccccc3c2)nn1 (stereo unspecified); 19.3
COc1ccc2[nH]c(=O)c(CN(Cc3cccnc3)S(=O)(=O)c3ccccc3F)cc2c1; 82.1

Now, please, on to the next molecule.
INPUT: Sample COC1(C2=NCCN2)COc2ccccc2O1 (stereo unspecified) — what was its inhibition?
OUTPUT: 9.5

====

Test: NF-kB reporter blockers in CF airway cells – cell-based, GFP fluorescence, uHTS, primary screen (AID 588850);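 note: PAF is a Pseudomonas aeruginosa culture filtrate used as stimulus; plate controls were PAF-stimulated DMSO wells for no effect and unstimulated DMSO wells for full effect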
Conditions: KKLEB NF-kB-GFP reporter, PAF-induced, GFP fluorescence overnight; at 5 µM; active compounds read high
Out of some 360,000 compounds screened, about 3,100 (0.86%) were called active. Many of the other results were omitted from the sample, so actives are more common in it than they were.
quantityKind: inhibition (%)
Answers are plain numbers, in %.

CCC(=O)N(Cc1cc2ccccc2[nH]c1=O)c1ccc(OC)cc1; -0.6

Required: inhibition, one value per compound below.
1. CCCCc1nc2ccc(F)cc2cc1C
2. Cc1ccc(S(=O)(=O)CCC(=O)OCC(=O)N(C)Cc2ccccc2)cc1

OUTPUT:
[-14.3, 7.6]
